Measured cell viability by item
system: Caco-2; assay: cell viability relative to DMSO; higher = less toxic; settings: 72 h; 100 nM
readout.type: cell viability (%)

Oc1ccc(OC2CCCCO2)cc1 (centres undefined) [deoxyarbutin]    99.1
N=C(N)Nc1ccc(C(=O)Oc2ccc3cc(C(=N)N)ccc3c2)cc1 [nafamostat]    98.8
CC(=O)NO [acetohydroxamic-acid]    94.9
NC(=O)N/N=C/c1ccc(Oc2ccc(F)cc2)cc1    104
CS(=O)(=O)c1ccc(-c2cnc(N)c(C(=O)Nc3ccccc3)n2)cc1 [VE-821]    101
CC(=O)N[C@@H](Cc1c[nH]c2ccccc12)C(=O)OCc1cc(C(F)(F)F)cc(C(F)(F)F)c1 [L-732,138]    96.4
CCCCCCCCCCCCOS(=O)(=O)O [dodecyl-sulfate]    102
Oc1ccc(Cl)cc1 [parachlorophenol]    99.7
CN1CCN(CCCN2c3ccccc3Sc3ccc(C(F)(F)F)cc32)CC1 [trifluoperazine]    84.3
Nc1ncnc2c1c(-c1ccc(Oc3ccccc3)cc1)nn2C1CCCC1    95.7
COCC(=O)Nc1c(I)c(C(=O)NCC(O)CO)c(I)c(C(=O)N(C)CC(O)CO)c1I (centres undefined) [iopromide]    93.7
COc1ccc2cc(C(C)C(=O)Oc3ccc(C(N)=S)cc3)ccc2c1 (centres undefined) [ATB-346]    93.7
CN(C)C/C=C/C(=O)Nc1cc2c(Nc3ccc(F)c(Cl)c3)ncnc2cc1O[C@H]1CCOC1 [afatinib]    83
CC1(C)Oc2ccc(C#N)cc2[C@@H](OC2=CC(=O)CC2)[C@@H]1O [PCO-400]    99.6
N=C(N)SCc1ccc(B(O)O)cc1 [BC-11]    96.1
C[N+](C)(C)CCCCCCCCCC[N+](C)(C)C [decamethonium]    99.1
C[C@H]1[C@H](C)CC[C@]2(C(=O)O)CC[C@]3(C)C(=CC[C@@H]4[C@@]5(C)C[C@@H](O)[C@H](O)C(C)(C)[C@@H]5CC[C@]43C)[C@H]12 [corosolic-acid]    102
CCOC(=O)[C@]12CC1/C(=N\O)c1ccccc1O2 (some centres undefined) [CPCCOEt]    89.2
C[C@H](Oc1ccc(S(C)(=O)=O)cc1C(=O)N1CCN(c2ncc(C(F)(F)F)cc2F)CC1)C(F)(F)F [bitopertin]    92.5

* * *

tested on: HepG2; assay: cell viability relative to DMSO; higher = less toxic; details: 72 h; 10000 nM
Measured cell viability by item
readout.type: cell viability (%)

CN(C)Cc1ccc(-c2nc3cccc4c3n2CCNC4=O)cc1    77.1
CCN(CC)CCCC(C)Nc1nc(C)cc(Nc2ccc3nc(C)cc(N)c3c2)n1 (stereo not given)    79.9
O=C(O)c1cccnc1    106
C#CCN1C(C)=C(C(=O)OC)C(c2cccc([N+](=O)[O-])c2)C(C(=O)OCC)=C1C (stereo not given)    95.7
O=C(N[C@H]1CN2CCC1CC2)c1ccc2c(c1)OCCO2    94.6
CN1C(=O)C[C@@H](C(=O)N[C@@H](Cc2c[nH]cn2)C(=O)N2CCC[C@H]2C(N)=O)NC1=O    108
COc1ncc(-c2ccc3nccc(-c4ccnnc4)c3c2)cc1NS(=O)(=O)c1ccc(F)cc1F    29.2
CN1c2cc3c(cc2N=C(c2ccc(C(=O)O)cc2)c2ccccc21)C(C)(C)CCC3(C)C    74
NC(=O)N/N=C/c1ccc(Oc2ccc(F)cc2)cc1    96
COc1nc(C)cnc1NS(=O)(=O)c1cccnc1-c1ccc(-c2nnco2)cc1    107
